- Target Entity: 5-hydroxytryptamine receptor 1A (Homo sapiens, UniProt P08908)
- Sequence (P08908 whole entry): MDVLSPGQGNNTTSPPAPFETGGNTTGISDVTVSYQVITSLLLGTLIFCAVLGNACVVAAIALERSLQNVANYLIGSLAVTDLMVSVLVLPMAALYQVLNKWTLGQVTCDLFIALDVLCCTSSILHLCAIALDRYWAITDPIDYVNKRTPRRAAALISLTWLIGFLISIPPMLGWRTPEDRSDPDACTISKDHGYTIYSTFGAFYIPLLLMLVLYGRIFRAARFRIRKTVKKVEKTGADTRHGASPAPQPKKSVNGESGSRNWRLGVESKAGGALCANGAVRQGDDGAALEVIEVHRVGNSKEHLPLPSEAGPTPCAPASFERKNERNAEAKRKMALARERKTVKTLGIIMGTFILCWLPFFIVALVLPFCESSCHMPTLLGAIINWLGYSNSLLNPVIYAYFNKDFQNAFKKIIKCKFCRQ
- Assay Name: Agonist activity at 5HT1A (unknown origin) receptor
Quantity Measured: pEC50
Remember, pEC50 is on a log scale: it is -log10 of the molar concentration.

Incoming: Reported pEC50 for CC[C@H]1CN2CC[C@]3(C(=O)Nc4ccccc43)[C@@H]2C[C@@H]1/C(=C\OC)C(=O)OC : what is it?
Outgoing: 4.34

* * *

- Target Entity: Gamma-secretase
- Assay Name: Inhibition of gamma-secretase (unknown origin)
- Assay type: protein-complex assay, Homo sapiens
Quantity Measured: pIC50
Remember, pIC50 is on a log scale: it is -log10 of the molar concentration.

Incoming: Reported pIC50 for CC(C)[C@@]1(NC(=O)[C@@H]2C[C@@H]3c4cccc5[nH]cc(c45)C[C@H]3N(C)C2)O[C@@]2(O)[C@@H]3CCCN3C(=O)[C@H](Cc3ccccc3)N2C1=O [DIHYDROERGOCRISTINE] : what is it?
Outgoing: 4.60

* * *

- Assay Name: Drug metabolism in RN rat assessed as epimerization ratio at 20 mg/kg, po
- Format: ADME, organism-based
- Measurement Parameters: in vivo, read-out: Drug metabolism
Would you kindly list metabolised for each of these compounds?

Incoming: Reported metabolised for CC[C@H]1CN2CC[C@]3(C(=O)Nc4ccccc43)[C@@H]2C[C@@H]1/C(=C\OC)C(=O)OC : what is it?
Outgoing: 22%

Incoming: Reported metabolised for CC[C@H]1CN2CC[C@@]3(C(=O)Nc4ccccc43)[C@@H]2C[C@@H]1/C(=C\OC)C(=O)OC : what is it?
Outgoing: 22%

* * *

- Target Entity: Beta-secretase 1 (Homo sapiens, UniProt P56817)
- Sequence (P56817 whole entry, the tested form may be a part): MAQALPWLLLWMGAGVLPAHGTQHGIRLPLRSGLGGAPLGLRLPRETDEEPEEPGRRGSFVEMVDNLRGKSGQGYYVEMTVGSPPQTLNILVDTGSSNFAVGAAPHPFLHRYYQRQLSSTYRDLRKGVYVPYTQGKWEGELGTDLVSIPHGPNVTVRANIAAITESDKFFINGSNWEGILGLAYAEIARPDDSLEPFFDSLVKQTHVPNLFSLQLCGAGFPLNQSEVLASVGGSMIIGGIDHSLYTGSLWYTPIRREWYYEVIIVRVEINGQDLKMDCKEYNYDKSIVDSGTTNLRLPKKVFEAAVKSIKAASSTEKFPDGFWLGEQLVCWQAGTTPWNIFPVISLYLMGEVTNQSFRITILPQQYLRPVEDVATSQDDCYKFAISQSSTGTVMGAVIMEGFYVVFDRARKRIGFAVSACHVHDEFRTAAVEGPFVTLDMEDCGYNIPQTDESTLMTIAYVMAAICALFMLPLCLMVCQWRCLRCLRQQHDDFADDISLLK
- Assay Name: Inhibition of human BACE1 (1 to 454 residues) using APP harboring Swedish Lys/Met mutant-derived peptide as substrate by FRET assay
Quantity Measured: IC50 (nM)
Give the number; nM is assumed, so skip it.

Incoming: Reported IC50 for CC#Cc1cncc(-c2ccc3c(c2)[C@@]2(CO3)N=C(N)C[C@H]2C(F)(F)F)c1 : what is it?
Outgoing: 115

* * *

- Target Entity: Melatonin receptor type 1A (Homo sapiens, UniProt P48039)
- Sequence (P48039 whole entry): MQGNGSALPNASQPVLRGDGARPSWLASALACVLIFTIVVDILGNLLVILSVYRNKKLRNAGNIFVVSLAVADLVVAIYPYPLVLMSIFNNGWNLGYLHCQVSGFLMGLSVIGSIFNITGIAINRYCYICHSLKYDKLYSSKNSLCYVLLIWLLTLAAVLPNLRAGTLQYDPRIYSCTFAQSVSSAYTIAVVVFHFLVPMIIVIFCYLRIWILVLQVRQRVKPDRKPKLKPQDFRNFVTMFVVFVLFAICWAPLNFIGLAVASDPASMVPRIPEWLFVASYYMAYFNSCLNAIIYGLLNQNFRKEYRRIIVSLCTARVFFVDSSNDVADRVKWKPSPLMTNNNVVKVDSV
- Assay Name: Agonist activity at human melatonin MT1 receptor stably expressing in human HEK293 cells
Quantity Measured: IC50
Remember to quote the unit after the number.

Incoming: Reported IC50 for Oc1cc(O)c2c(c1)O[C@H](c1ccc(O)c(O)c1)[C@@H](O)C2 : what is it?
Outgoing: 25.8 µM
